- Tested on: 885724-159-R-J1-PDC KRAS PDC multicell spheroid viability
- ASSAY_SUMMARY: Anticancer human tumor 885724-159-R-J1-PDC patient-derived pancreatic adenocarcinoma cell line growth inhibition [KRAS2]
- EXPERIMENTAL_PARAMETERS: second compound 3.16 µM; first compound 3.16 µM; hits give low values
- From the text: Multicellular complex tumor spheroid response to RAS pathway inhibitors in combination with a targeted agents in patient-derived cell lines with oncogenic KRAS variants from multiple cancer types A high-throughput screen of multi-cell type tumor spheroids was designed to identify active combinations of targeted small molecules and KRAS pathway inhibitors. […] Compounds. […] If the clinical Cmax for an agent had not been determined, the highest concentration tested was 10 microM. […]
PROPERTY_LABEL: viability, T/C (%)
Please give a number only; it is taken to be in %.

Form field: reported viability, T/C of CC1COCCN1c1cc(-c2ccnn2C)c2ccnc(-c3ccn[nH]3)c2n1 (stereo not given) + C=CC(=O)N1CCN(c2nc(=O)n(-c3c(C)ccnc3C(C)C)c3nc(-c4c(O)cccc4F)c(F)cc23)C(C)C1 54.1

Form field: reported viability, T/C of CC1OCC2(CCN(c3cnc(Sc4ccnc(N)c4Cl)c(N)n3)CC2)C1N (stereo not given) + COc1cc2nc(C)nc(NC(C)c3cc(N)cc(C(F)(F)F)c3)c2cc1OC1CCOC1 55.1

Form field: reported viability, T/C of CC1COCCN1c1cc(-c2ccnn2C)c2ccnc(-c3ccn[nH]3)c2n1 (stereo not given) + COc1cc2nc(C)nc(NC(C)c3cc(N)cc(C(F)(F)F)c3)c2cc1OC1CCOC1 52.9

Form field: reported viability, T/C of O=C(c1cc(Cc2n[nH]c(=O)c3ccccc23)ccc1F)N1CCN(C(=O)C2CC2)CC1 + CC1OCC2(CCN(c3cnc(Sc4ccnc(N)c4Cl)c(N)n3)CC2)C1N 78.9

Form field: reported viability, T/C of CC(=O)OC12COC1CC(O)C1(C)C(=O)C(O)C3=C(C)C(OC(=O)C(O)C(NC(=O)OC(C)(C)C)c4ccccc4)CC(O)(C(OC(=O)c4ccccc4)C21)C3(C)C (stereo not given) + C=CC(=O)N1CCN(c2nc(OCC3CCCN3C)nc3c2CCN(c2cccc4cccc(C)c24)C3)CC1CC#N 115

====

- System: 885724-159-R-J1-PDC KRAS PDC multicell spheroid viability
- ASSAY_SUMMARY: Anticancer human tumor 885724-159-R-J1-PDC cell line growth inhibition [KRAS2]; active = viability on the fitted dose curve at most 10% of control; inactive = the rest;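 further: spheroids exposed to agents for 7 days before readout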
- EXPERIMENTAL_PARAMETERS: second compound 10 µM; first compound 3.16 µM
Respond only with the outcome that fits, drawn from true (1) for active, false (0) for inactive

Per the assay record, what outcome was assigned to COc1cc2nccc(Oc3ccc(NC(=O)C4(C(=O)Nc5ccc(F)cc5)CC4)cc3)c2cc1OC + CC1OCC2(CCN(c3cnc(Sc4ccnc(N)c4Cl)c(N)n3)CC2)C1N ? false (0)

Per the assay record, what outcome was assigned to CC(=O)OC12COC1CC(O)C1(C)C(=O)C(O)C3=C(C)C(OC(=O)C(O)C(NC(=O)OC(C)(C)C)c4ccccc4)CC(O)(C(OC(=O)c4ccccc4)C21)C3(C)C (stereo not given) + COc1cc2nc(C)nc(NC(C)c3cc(N)cc(C(F)(F)F)c3)c2cc1OC1CCOC1 ? false (0)

Per the assay record, what outcome was assigned to COC(=O)c1ccc2c(C(=Nc3ccc(N(C)C(=O)CN4CCN(C)CC4)cc3)c3ccccc3)c(O)[nH]c2c1 + CNCc1ccccc1-c1csc(C(C)Nc2nc(C)nc3cc(OC)c(OC)cc23)c1 ? true (1)

Per the assay record, what outcome was assigned to CC1COCCN1c1cc(-c2ccnn2C)c2ccnc(-c3ccn[nH]3)c2n1 (stereo not given) + COc1cc2nc(C)nc(NC(C)c3cc(N)cc(C(F)(F)F)c3)c2cc1OC1CCOC1 ? false (0)

Per the assay record, what outcome was assigned to O=C(c1cc(Cc2n[nH]c(=O)c3ccccc23)ccc1F)N1CCN(C(=O)C2CC2)CC1 + COc1cc2nc(C)nc(NC(C)c3cc(N)cc(C(F)(F)F)c3)c2cc1OC1CCOC1 ? false (0)

Per the assay record, what outcome was assigned to CC1COCCN1c1cc(-c2ccnn2C)c2ccnc(-c3ccn[nH]3)c2n1 (stereo not given) + CC1OCC2(CCN(c3cnc(Sc4ccnc(N)c4Cl)c(N)n3)CC2)C1N ? false (0)

Per the assay record, what outcome was assigned to CCNC(=O)CC1N=C(c2ccc(Cl)cc2)c2cc(OC)ccc2-n2c(C)nnc21 (stereo not given) + CNCc1ccccc1-c1csc(C(C)Nc2nc(C)nc3cc(OC)c(OC)cc23)c1 ? true (1)

Per the assay record, what outcome was assigned to CC(C)NCC(C(=O)N1CCN(c2ncnc3c2C(C)CC3O)CC1)c1ccc(Cl)cc1 (stereo not given) + COc1cc2nc(C)nc(NC(C)c3cc(N)cc(C(F)(F)F)c3)c2cc1OC1CCOC1 ? false (0)

Per the assay record, what outcome was assigned to CC(=O)OC12COC1CC(O)C1(C)C(=O)C(O)C3=C(C)C(OC(=O)C(O)C(NC(=O)OC(C)(C)C)c4ccccc4)CC(O)(C(OC(=O)c4ccccc4)C21)C3(C)C (stereo not given) + CC1OCC2(CCN(c3cnc(Sc4ccnc(N)c4Cl)c(N)n3)CC2)C1N ? false (0)

Per the assay record, what outcome was assigned to CCNC(=O)CC1N=C(c2ccc(Cl)cc2)c2cc(OC)ccc2-n2c(C)nnc21 (stereo not given) + CC1OCC2(CCN(c3cnc(Sc4ccnc(N)c4Cl)c(N)n3)CC2)C1N ? false (0)

Per the assay record, what outcome was assigned to CC1(C)CCC(CN2CCN(c3ccc(C(=O)NS(=O)(=O)c4ccc(NCC5CCOCC5)c([N+](=O)[O-])c4)c(Oc4cnc5[nH]ccc5c4)c3)CC2)=C(c2ccc(Cl)cc2)C1 + COc1cc2nc(C)nc(NC(C)c3cc(N)cc(C(F)(F)F)c3)c2cc1OC1CCOC1 ? false (0)

Per the assay record, what outcome was assigned to CC1COCCN1c1cc(-c2ccnn2C)c2ccnc(-c3ccn[nH]3)c2n1 (stereo not given) + CNCc1ccccc1-c1csc(C(C)Nc2nc(C)nc3cc(OC)c(OC)cc23)c1 ? true (1)

Per the assay record, what outcome was assigned to CC1COCCN1c1cc(-c2ccnn2C)c2ccnc(-c3ccn[nH]3)c2n1 (stereo not given) + C=CC(=O)N1CCN(c2nc(=O)n(-c3c(C)ccnc3C(C)C)c3nc(-c4c(O)cccc4F)c(F)cc23)C(C)C1 ? false (0)

Per the assay record, what outcome was assigned to COc1cc(Nc2ncc3c(n2)-c2ccc(Cl)cc2C(c2c(F)cccc2OC)=NC3)ccc1C(=O)O + COc1cc2nc(C)nc(NC(C)c3cc(N)cc(C(F)(F)F)c3)c2cc1OC1CCOC1 ? false (0)

Per the assay record, what outcome was assigned to COC(=O)c1ccc2c(C(=Nc3ccc(N(C)C(=O)CN4CCN(C)CC4)cc3)c3ccccc3)c(O)[nH]c2c1 + C=CC(=O)N1CCN(c2nc(=O)n(-c3c(C)ccnc3C(C)C)c3nc(-c4c(O)cccc4F)c(F)cc23)C(C)C1 ? false (0)

Per the assay record, what outcome was assigned to COc1cc2nccc(Oc3ccc(NC(=O)C4(C(=O)Nc5ccc(F)cc5)CC4)cc3)c2cc1OC + CNCc1ccccc1-c1csc(C(C)Nc2nc(C)nc3cc(OC)c(OC)cc23)c1 ? true (1)

Per the assay record, what outcome was assigned to CC(=O)OC12COC1CC(O)C1(C)C(=O)C(O)C3=C(C)C(OC(=O)C(O)C(NC(=O)OC(C)(C)C)c4ccccc4)CC(O)(C(OC(=O)c4ccccc4)C21)C3(C)C (stereo not given) + C=CC(=O)N1CCN(c2nc(=O)n(-c3c(C)ccnc3C(C)C)c3nc(-c4c(O)cccc4F)c(F)cc23)C(C)C1 ? false (0)

Per the assay record, what outcome was assigned to COc1cc(Nc2ncc3c(n2)-c2ccc(Cl)cc2C(c2c(F)cccc2OC)=NC3)ccc1C(=O)O + C=CC(=O)N1CCN(c2nc(=O)n(-c3c(C)ccnc3C(C)C)c3nc(-c4c(O)cccc4F)c(F)cc23)C(C)C1 ? false (0)

Per the assay record, what outcome was assigned to COc1cc2nccc(Oc3ccc(NC(=O)C4(C(=O)Nc5ccc(F)cc5)CC4)cc3)c2cc1OC + COc1cc2nc(C)nc(NC(C)c3cc(N)cc(C(F)(F)F)c3)c2cc1OC1CCOC1 ? true (1)

Per the assay record, what outcome was assigned to CC(C)NCC(C(=O)N1CCN(c2ncnc3c2C(C)CC3O)CC1)c1ccc(Cl)cc1 (stereo not given) + C=CC(=O)N1CCN(c2nc(=O)n(-c3c(C)ccnc3C(C)C)c3nc(-c4c(O)cccc4F)c(F)cc23)C(C)C1 ? false (0)
